Data origin: PubChem BioAssay (NCI)

System: KM12 colon
testSummary: NCI-60 one-dose screen, 48 h (100 = growth as untreated, 0 = no growth, -100 = all killed)
measurementSetup: 10 µM unless noted
Protocol: Growth inhibition of the KM12 human tumor cell line is measured as a screen for anti-cancer activity. Cells are grown in 96 well plates and exposed to the test compound for 48 hours. Compounds are tested at a single concentration, which is 10^-5 M for most compounds. The reported endpoint is percent growth (GI% or GIPRCNT), where numbers from 0 - 100% represent growth inhibition, and numbers from -100% - 0 represent cell death. For example, a value of 40 represents 60% growth inhibition. […]
About 83,000 compounds went through this panel and 20% of them were active in at least one assay; those are over-represented in the sample as a whole.
Could you please mark MET for values of growth below 90% and NOT MET for values at or above it?

compound | groupLabel
N#Cc1c(N)nc(NCCO)nc1-c1ccc(F)cc1 | NOT MET
CC(=O)N1C(=S)NC(=O)C1Cn1c(-c2ccccc2)nc2ccccc21 (centres undefined) | NOT MET
O=C(/C=C/c1cccc(O)c1)c1cccc(-n2cc(-c3ccc4ccccc4c3)[nH]c2=O)c1 | MET
CCCCn1c(=O)c2c(nc(NCCc3ccc(O)c(O)c3)n2CCC)n(CCCC)c1=O | MET
COc1ccc(OC)c(-c2c(C#N)c(-c3ccc(Cl)cc3)nc3c2c(-c2ccccc2)nn3-c2ccccc2)c1 | NOT MET
COc1ccc(/C=N/C2=C(C#N)C(c3ccc(OC)cc3)c3ccc4ccccc4c3O2)cc1 (centres undefined) | MET
Fc1cnc(NC2CC2)nc1-c1cnc2ccc(N3CCOCC3)cn12 | MET
COc1ccc(N=Nc2ccc(O)c(=O)cc2)cc1 | MET
O=C(Nc1ccccc1)Nc1cccc(Oc2nnc(Cl)c3ccccc23)c1 | MET
Cc1cc(Cl)ccc1Nc1nc(C(F)(F)F)ccc1C(=O)N/N=C/c1ccc(N(C)C)cc1 | MET
O=C(Nc1cccc(C(F)(F)F)c1)Nc1cccc(C(F)(F)F)c1 | MET
Cc1cc[c-]cc1.Fc1c[c-]c(-c2ccccn2)c(F)c1.[Pt+2].c1ccc(P(C[PH+](c2ccccc2)c2ccccc2)c2ccccc2)cc1 | MET
COc1cccc(Nc2nccc(Nc3ccc4[nH]ncc4c3)n2)c1 | MET
O=C(O)c1ccc2c(c1Cl)C(=O)c1ccccc1C2=O | NOT MET
O=C(COc1ccc(/C=C2\Oc3ccccc3C2=O)cc1)Nc1nc2ccccc2s1 | MET
COC(=O)[C@]12CC[C@@H](C)[C@H](C)[C@@H]1C1=CC[C@@H]3[C@@]4(C)C(C=O)=C[C@@](C)(COS(C)(=O)=O)C4[C@H](O)C[C@@]3(C)[C@]1(C)CC2 (some centres undefined) | MET
CSc1n(Cc2ccc3ccccc3c2)c(C)c[n+]1Cc1ccc2ccccc2c1 | MET
CC(=O)OC1CCC2(C)C(=CC3C4CCC(=O)C4(C)CCC32)C1 (centres undefined) | NOT MET
COc1cccc(-c2nn(-c3ccccc3)cc2-c2ccnc(NCCCNC(=O)c3ccccc3)c2)c1 | MET
CCN(CC)CCN1C(=O)c2c(c(C)c3c(oc4cc(O)ccc43)c2C)C1=O | MET
N=C1CCC(=N)c2c1c(O)c1ccccc1c2O | NOT MET
Cc1ccc(S(=O)(=O)NCC[C@@H]2C[C@H]2c2cc3ccccc3s2)cc1 | NOT MET
c1ccc(-c2nc([P+](c3ccccc3)(c3ccccc3)c3ccccc3)c(N3CCOCC3)o2)cc1 | MET
Cc1ccc2nc(C)c(-c3nnc(SCc4ccc(C#N)cc4)o3)n2c1 | NOT MET
COc1cc(OC)cc(C2CC(=O)Nc3c2c(C)nn3-c2nc3ccccc3[nH]2)c1 (centres undefined) | MET
N#C/C(=C\c1ccc2c(c1)OCO2)n1nnc2cc(F)c(F)cc21 | MET
N/C(=N/N=C/c1ccccc1)N/N=C\c1ccccc1 | MET
CC/C=C/C/C=C/C/C=C/C/C=C/C/C=C/C/C=C/CCC(=O)Nc1ccn([C@@H]2O[C@H](CO)[C@@H](O)C2(F)F)c(=O)n1 | MET
Cc1cc(NCc2cc(Nc3ccnc4cc(Cl)ccc34)ccc2F)nc(N2CCN(c3ccccc3)CC2)n1 | MET
Cc1ccc2[nH]c(=O)c3c(c2c1)OC(N)=C(C#N)C31c2cc(Br)ccc2-c2ccc(Br)cc21 | MET
c1ccc2c(c1)nc(CN1CCOCC1)n1cc(N3CCCC3)nc21 | NOT MET
C[C@@]1(CCC#N)[C@H]2CC[C@@H]3[C@H]4[C@H](C(=O)/C=C/c5cccnc5)CC[C@]4(C#N)CC[C@@]3(C)[C@]2(C)CC[C@H]1C(=O)/C=C/c1cccnc1 | MET
c1ccc2cc3nc4cc5ccccc5cc4nc3cc2c1 | MET
O=c1cc(C2NNC(=S)N2)c2ccc3ccccc3c2o1 (centres undefined) | NOT MET
COc1cc(/C=C2\C(=O)ON=C2C)cc(OC)c1OC | NOT MET
C=C(C)[C@@H]1CC=C2c3sc(-c4ccc(C)cc4)nc3C[C@@H](C)[C@]2(C)C1 | NOT MET
COc1ccc(C(=O)/C=C/c2c(C(F)(F)F)nc3sccn23)cc1OC | MET

----------
System: UACC-257 melanoma
testSummary: NCI-60 one-dose screen, 48 h (100 = growth as untreated, 0 = no growth, -100 = all killed)
measurementSetup: 10 µM unless noted
The panel holds about 83,000 compounds, 20% with a hit somewhere; the sample as a whole holds those more often. The source made the active and inactive calls. The calls were made as follows: active = growth percent below 10; inactive = the rest.
resultType: growth

compound | recordedMeasurement
COc1nc(N(C)O)nc(N(C)O)n1 | 39.6% (inactive)
COCCc1ccc(OCC(O)CNC(C)C)cc1 (centres undefined) | 96.3% (inactive)
CCN(CCNc1ccc(C)c2sc3ccccc3c(=O)c12)CC(C)(C)O | 95.9% (inactive)
CC1=C(SCCC(=O)OC(C[Se]C2=C(C)C(=O)c3ccccc3C2=O)C(=O)NCCCCCC(=O)OCc2ccccc2)C(=O)c2ccccc2C1=O (centres undefined) | 45.4% (inactive)
Cc1ccc(NS(=O)(=O)c2ccc3c(c2)C(=O)CC(c2ccc(C(=O)C(C)C)cc2)N3)cc1C (centres undefined) | 43.1% (inactive)
O=C1C=C[C@]2(C[C@@H](c3cccc(C(F)(F)F)c3)O[C@@H](c3cccc(C(F)(F)F)c3)O2)O1 | 59.6% (inactive)
COc1cccc(/C=C/C(=O)c2c(C)nc3ccccc3c2/C=C/c2ccc(C)cc2)c1OC | 67.5% (inactive)
COc1cc(/C=C/C(=O)c2c(C)nc3ccccc3c2C)ccc1OCCCN1CCN(C(=O)c2ccco2)CC1 | 62.4% (inactive)
COc1ccc2c(c1)O/C(=C/c1ccc(OCC(=O)c3ccccc3)cc1)C2=O | 125% (inactive)

----------
Item-by-item account of growth
System: HS 578T breast
testSummary: NCI-60 one-dose screen, 48 h (100 = growth as untreated, 0 = no growth, -100 = all killed)
measurementSetup: 10 µM unless noted
The panel holds about 83,000 compounds, 20% with a hit somewhere; the sample as a whole holds those more often. Activity calls are given as the source filed them. The calls were made as follows: active = growth percent below 10; inactive = the rest.

compound | targetOrTestSystem | growth
CCCc1cc2c(=O)c(C(=O)OC)c[nH]c2cc1N(CC)CC | HS 578T breast | 123% (inactive)
CCN1C(=O)N(CC)C2Nn3c(s/c(=C4\C(=O)N(C)c5ccccc54)c3=O)=NC21 (stereo unspecified) | HS 578T breast | 38.3% (inactive)
CC1=C([Se]CC(OC(=O)CC[Se]c2ccccc2)C(=O)NCCCCCC(=O)OCc2ccccc2)C(=O)c2ccccc2C1=O (stereo unspecified) | HS 578T breast | -13.4% (active)
O=C(NCCCNc1cc(-c2cn(-c3ccccc3)nc2-c2cccc(O)c2)ccn1)c1ccccc1 | HS 578T breast | -6.38% (active)
CCN1C(=O)N(CC)C2Nn3c(s/c(=C\c4ccc(Cl)cc4Cl)c3=O)=NC21 (stereo unspecified) | HS 578T breast | 55.4% (inactive)
CC/C=C1/C(=O)C=C[C@@H]1C/C=C\CCCC(=O)O | HS 578T breast | 69.1% (inactive)
COc1ccc(-c2nc3ccc4[nH]ncc4c3c3c2CCCC3)cc1B(O)O | HS 578T breast | 0.224% (active)
Clc1cccc(Cl)c1/C=C/c1cc(/C=C/c2c(Cl)cccc2Cl)[nH]n1 | HS 578T breast | 45.5% (inactive)
COc1ccc2nc(NNC(=O)c3cnccn3)c3cccn3c2c1 | HS 578T breast | 43.8% (inactive)
O=C(Nc1ccccc1-c1nc2ccccc2c(=O)[nH]1)c1cc2ccccc2[nH]1 | HS 578T breast | 85.8% (inactive)
COc1ccc(N=Nc2ccc(O)c(=O)cc2)cc1 | HS 578T breast | 30.7% (inactive)
COc1c(CCC[P+](c2ccccc2)(c2ccccc2)c2ccccc2)cc2c(c1OC)OCO2 | HS 578T breast | 11.7% (inactive)
C=C1C(=O)O[C@H]2[C@H]1CC/C(CNC(=O)/C=C/c1ccc(Cl)cc1Cl)=C\CC[C@@]1(C)O[C@@H]21 | HS 578T breast | -4.31% (active)
Cc1ccc(C(=O)CSc2nc(-c3ccc(Br)cc3)c(C#N)c(=O)[nH]2)cc1 | HS 578T breast | 93% (inactive)
S=C(Cc1ccc2c(c1)CCCC2)N1CCOCC1 | HS 578T breast | 115% (inactive)
c1c[nH]c(CNC2CCCCC2)c1 | HS 578T breast | 102% (inactive)
CC1CC2Oc3ccc(Cl)cc3C(=O)N2O1 (stereo unspecified) | HS 578T breast | 102% (inactive)
COc1ccc(Nc2nnc(SCc3ccccc3F)s2)cc1 | HS 578T breast | 98% (inactive)
O=C(CSc1nccc(Nc2ccc(S(=O)(=O)Nc3nccs3)cc2)n1)c1ccc(F)cc1 | HS 578T breast | 97.9% (inactive)
CS(=O)(=O)c1ccc(Nc2nc(N[C@H]3CCCC[C@H]3N)nc3cc[nH]c(=O)c23)cc1 | HS 578T breast | 22.2% (inactive)
N=C1CCC(=N)c2c1c(O)c1ccccc1c2O | HS 578T breast | 82.8% (inactive)
